Below is a list of entries, each paired with its recorded Kb value.
Biological target: 5-HT2A receptor (Homo sapiens)
Sequence (P28223 whole entry): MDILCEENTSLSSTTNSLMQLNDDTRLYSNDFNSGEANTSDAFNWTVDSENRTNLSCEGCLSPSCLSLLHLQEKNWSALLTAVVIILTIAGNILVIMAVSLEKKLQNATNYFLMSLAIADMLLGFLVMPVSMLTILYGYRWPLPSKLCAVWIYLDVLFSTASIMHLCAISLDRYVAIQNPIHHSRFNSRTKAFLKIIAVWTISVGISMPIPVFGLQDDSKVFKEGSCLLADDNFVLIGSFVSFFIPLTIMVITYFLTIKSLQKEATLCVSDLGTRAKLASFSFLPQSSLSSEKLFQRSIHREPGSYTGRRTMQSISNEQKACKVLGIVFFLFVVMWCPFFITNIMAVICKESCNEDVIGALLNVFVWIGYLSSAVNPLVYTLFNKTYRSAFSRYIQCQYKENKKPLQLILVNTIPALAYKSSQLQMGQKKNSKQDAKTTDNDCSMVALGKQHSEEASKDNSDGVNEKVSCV
Experiment: In vitro functional assay for 5-HT2 receptor (intracellular calcium, FLIPR), 5-HT2A
Format: cell-based
Details: same cell lines as receptor binding, read-out: pKb 5-HT2A (converted)
Where a name gives a salt, the structure may show the parent alone.

>  <compound>
c1ccc(Cc2nc3c(c(-c4ccccc4)n2)CCNC3)cc1 [Example 78]

>  <unit descriptor>
nM

>  <Kb>
79.4

$$$$
>  <compound>
Cc1ccc(-c2nc(C3CCCC3)nc3c2CNCC3)cc1 [Example 18]

>  <unit descriptor>
nM

>  <Kb>
25.1

$$$$
>  <compound>
Fc1ccc(-c2nc(C3CCCC3)nc3c2CNCC3)cc1 [Example 17]

>  <unit descriptor>
nM

>  <Kb>
7.94

$$$$
>  <compound>
CN1CCc2c(nc(Cc3ccccc3)nc2-c2ccc(F)cc2)C1 [Example 82, hydrochloride]

>  <unit descriptor>
nM

>  <Kb>
7.94

$$$$
>  <compound>
Fc1ccc(-c2nc(Cc3ccccc3)nc3c2CCCNC3)cc1 [Example 64, hydrochloride]

>  <unit descriptor>
nM

>  <Kb>
79.4

$$$$
>  <compound>
CN1CCc2nc(Cc3ccc(F)cc3)nc(-c3ccc(F)cc3)c2CC1 [Example 62]

>  <unit descriptor>
nM

>  <Kb>
1.58

$$$$
>  <compound>
CC(C)c1nc(-c2ccc(F)cc2)c2c(n1)C(C)CNC2 (stereo not drawn) [Example 100, hydrochloride]

>  <unit descriptor>
nM

>  <Kb>
100

$$$$
>  <compound>
Fc1ccc(-c2nc(Cc3ccccc3)nc3c2CCNC3)cc1 [Example 76, hydrochloride]

>  <unit descriptor>
nM

>  <Kb>
100

$$$$
>  <compound>
Fc1ccc(Cc2nc3c(c(-c4ccc(F)cc4)n2)CCNCC3)cc1 [Example 57]

>  <unit descriptor>
nM

>  <Kb>
6.31

$$$$
>  <compound>
CC(C)c1nc2c(c(-c3ccc(F)cc3)n1)CNCC2 [Example 21, hydrochloride]

>  <unit descriptor>
nM

>  <Kb>
31.6

$$$$
>  <compound>
C=C1CN(C)CCc2c1nc(Cc1ccc(F)cc1)nc2-c1ccc(F)cc1 [Example 63]

>  <unit descriptor>
nM

>  <Kb>
15.8

$$$$
>  <compound>
Fc1ccc(Cc2nc3c(c(-c4ccc(F)cc4)n2)CNCC3)cc1 [Example 13]

>  <unit descriptor>
nM

>  <Kb>
79.4

$$$$

Where do the numbers come from? From patent US7598255B2.
